These measurements were taken from ChEMBL document CHEMBL4680259.

For each of the compounds below, state its pIC50.
System: A549
assay text: Antiproliferative activity against human A549 cells assessed as cell growth inhibition measured after 24 hrs by MTT assay
Assay type: functional, cell-based
experimental setup: A549, 24 h
Answers are plain numbers, as −log10 of the molar value.

// map COc1ccc2c(c1)c(C1CC(c3cc(OC)c(OC)c(OC)c3)=NN1C(N)=O)cn2Cc1ccc(OCCN2CCCCC2)cc1 (stereo not drawn) to recorded pIC50 (system: A549)
4.91

NC(=O)N1N=C(c2cccc(Cl)c2)CC1c1cn(Cc2ccc(OCCN3CCCCC3)cc2)c2ccc(Br)cc12 (stereo not drawn) , same question.
5.23

Please state pIC50 for every compound in the list that follows.
1. COc1ccc2c(c1)c(C1CC(c3ccc(C(F)(F)F)cc3)=NN1C(N)=O)cn2Cc1ccc(OCCN2CCCCC2)cc1 (stereo not drawn)
2. COc1ccc(C2=NN(C(N)=O)C(c3cn(Cc4ccc(OCCN5CCCCC5)cc4)c4ccc(OC)cc34)C2)cc1 (stereo not drawn)
3. NC(=O)N1N=C(c2cccc(C(F)(F)F)c2)CC1c1cn(Cc2ccc(OCCN3CCCCC3)cc2)c2ccc(Br)cc12 (stereo not drawn)
4. COc1ccccc1C1=NN(C(N)=O)C(c2cn(Cc3ccc(OCCN4CCCCC4)cc3)c3ccc(Br)cc23)C1 (stereo not drawn)

5.21
4.84
5.27
5.16

Please look at the items below and tell me pIC50 for each one, in order.
1. NC(=O)N1N=C(c2ccc(Cl)cc2)CC1c1cn(Cc2ccc(OCCN3CCCCC3)cc2)c2ccc(Br)cc12 (stereo not drawn)
2. COc1cccc(C2=NN(C(N)=O)C(c3cn(Cc4ccc(OCCN5CCCCC5)cc4)c4ccc(Br)cc34)C2)c1 (stereo not drawn)

[5.27, 5.21]
